Recorded kon, one value per entry.
TARGET OF ASSAY: human recombinant EpCAM antigen (extracellular domain, residues 1 to 265, fused with 6×His tag and Avi-tag) (human) (UniProt P16422)
Sequence (P16422 24-265 limits assumed, form in doubt): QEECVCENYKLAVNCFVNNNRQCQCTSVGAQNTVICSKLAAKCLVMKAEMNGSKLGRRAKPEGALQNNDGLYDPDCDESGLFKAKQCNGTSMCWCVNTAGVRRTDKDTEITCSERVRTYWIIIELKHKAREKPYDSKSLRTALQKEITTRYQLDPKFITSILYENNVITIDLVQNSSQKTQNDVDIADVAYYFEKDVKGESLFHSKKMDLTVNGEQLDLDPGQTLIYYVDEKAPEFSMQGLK
PROCEDURE DETAILS: SPR (Biacore 2000), EpCAM on CM5 chip (about 367 RU), antibody 6.25-100 nM as analyte
State just the number; it will be interpreted in M⁻¹ s⁻¹.

Sample answers from the record:
ep7-Ras03 (antibody, part only; not given: RT22 heavy chain, light constant, V domains shown, not shown: another chain or arm of the molecule; a dimerising Fc or GST, chain 1: disulfide bond Cys5-Cys10 closes the Ep7 cyclic peptide) VL: DNLRCIGNICWSMGSSSNDIQMTQSPSSLSASVGDRVTITCKSSQSLLNSRDGKNYLAWYQQKPGKAPKLLIYWASTRESGVPSRFSGSGSGTDFTLTISSLQPEDFATYFCQQYWYWMYTFGQGTKVEIK	1.36e+06
ep3-Ras03 (antibody, part only; not given: RT22 heavy chain, light constant, V domains shown, not shown: another chain or arm of the molecule; a dimerising Fc or GST, chain 1: disulfide bond Cys5-Cys10 closes the cyclic peptide) VL: ENLQCIGNLCWSMGSSSNDIQMTQSPSSLSASVGDRVTITCKSSQSLLNSRDGKNYLAWYQQKPGKAPKLLIYWASTRESGVPSRFSGSGSGTDFTLTISSLQPEDFATYFCQQYWYWMYTFGQGTKVEIK	1.7e+06
ep4-Ras03 (antibody, part only; not given: RT22 heavy chain, light constant, V domains shown, not shown: another chain or arm of the molecule; a dimerising Fc or GST, chain 1: disulfide bond Cys5-Cys10 closes the cyclic peptide) VL: EHLHCLGSLCWSMGSSSNDIQMTQSPSSLSASVGDRVTITCKSSQSLLNSRDGKNYLAWYQQKPGKAPKLLIYWASTRESGVPSRFSGSGSGTDFTLTISSLQPEDFATYFCQQYWYWMYTFGQGTKVEIK	728000

Now for another entry.
Exam item: GET /values?readout=kon&item= ep6-Ras03 (antibody, part only; not given: RT22 heavy chain, light constant, V domains shown, not shown: another chain or arm of the molecule; a dimerising Fc or GST, chain 1: disulfide bond Cys5-Cys10 closes the Ep6 cyclic peptide) VL: NNLRCIGNICWSMGSSSNDIQMTQSPSSLSASVGDRVTITCKSSQSLLNSRDGKNYLAWYQQKPGKAPKLLIYWASTRESGVPSRFSGSGSGTDFTLTISSLQPEDFATYFCQQYWYWMYTFGQGTKVEIK
Marked response: 3.02e+06
